Activity calls are given as the source filed them.
// values below are Kd; system is cAMP-dependent protein kinase catalytic subunit gamma (Homo sapiens, UniProt P22612); further: in the data inactive means no Kd found up to 30 µM
Sequence (P22612 whole entry): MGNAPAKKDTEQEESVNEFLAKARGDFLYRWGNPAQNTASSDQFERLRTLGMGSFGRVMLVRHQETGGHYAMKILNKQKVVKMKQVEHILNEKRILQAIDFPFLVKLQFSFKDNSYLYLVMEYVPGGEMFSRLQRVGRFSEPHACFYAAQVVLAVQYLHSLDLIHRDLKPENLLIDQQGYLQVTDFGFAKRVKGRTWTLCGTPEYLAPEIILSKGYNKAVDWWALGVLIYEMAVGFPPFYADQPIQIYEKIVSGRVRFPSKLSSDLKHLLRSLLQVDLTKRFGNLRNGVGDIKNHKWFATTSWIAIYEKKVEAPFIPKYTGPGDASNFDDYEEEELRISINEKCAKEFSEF

Would you please look over these solved cases?
| molecule | system_under_test | result |
| --- | --- | --- |
| CCc1cnn2c(NCc3ccc[n+]([O-])c3)cc(N3CCCC[C@H]3CCO)nc12 | cAMP-dependent protein kinase catalytic subunit gamma (Homo sapiens, UniProt P22612) | > 30 µM (inactive) |
| O=C1NC(=O)/C(=C/c2ccc3nccc(-c4ccncc4)c3c2)S1 | cAMP-dependent protein kinase catalytic subunit gamma (Homo sapiens, UniProt P22612) | > 30 µM (inactive) |
| COC(=O)N[C@@H](C)CNc1nccc(-c2cn(C(C)C)nc2-c2cc(Cl)cc(NS(C)(=O)=O)c2F)n1 | cAMP-dependent protein kinase catalytic subunit gamma (Homo sapiens, UniProt P22612) | > 30 µM (inactive) |
| CO[C@H]1C[C@@H]2CC[C@@H](C)[C@@](O)(O2)C(=O)C(=O)N2CCCC[C@H]2C(=O)O[C@H]([C@H](C)C[C@@H]2CC[C@@H](OCCO)[C@H](OC)C2)CC(=O)[C@H](C)/C=C(\C)[C@@H](O)[C@@H](OC)C(=O)[C@H](C)C[C@H](C)/C=C/C=C/C=C/1C | cAMP-dependent protein kinase catalytic subunit gamma (Homo sapiens, UniProt P22612) | > 30 µM (inactive) |
| Nc1nc(N)c2nc(-c3cccc(O)c3)c(-c3cccc(O)c3)nc2n1 | cAMP-dependent protein kinase catalytic subunit gamma (Homo sapiens, UniProt P22612) | > 30 µM (inactive) |

Task: Record request: Kd value, item COC(=O)[C@@]1(O)C[C@H]2O[C@]1(C)n1c3ccccc3c3c4c(c5c6ccccc6n2c5c31)C(=O)NC4 [K-252A]
Result: > 30 µM (inactive)

Task: What do you have for CC[C@H](Nc1ncnc2[nH]cnc12)c1nc2cccc(F)c2c(=O)n1-c1ccccc1 ?
Result: > 30 µM (inactive)

Task: What do you have for CN1CCN(c2ccc3nc(-c4c(N)c5c(F)cccc5[nH]c4=O)[nH]c3c2)CC1 ?
Result: > 30 µM (inactive)

Task: What do you have for C[C@@H](Nc1cc(F)cc(F)c1)c1cc(C(=O)N(C)C)cc2c(=O)cc(N3CCOCC3)oc12 ?
Result: > 30 µM (inactive)

Task: What do you have for C=CC(=O)N1CCC(Oc2cc3c(Nc4ccc(Cl)c(Cl)c4F)ncnc3cc2OC)CC1 ?
Result: > 30 µM (inactive)

====

system_under_test: Tyrosine-protein kinase Lyn (Homo sapiens, UniProt P07948); further: in the data inactive means no Kd found up to 30 µM
Sequence (P07948 whole entry): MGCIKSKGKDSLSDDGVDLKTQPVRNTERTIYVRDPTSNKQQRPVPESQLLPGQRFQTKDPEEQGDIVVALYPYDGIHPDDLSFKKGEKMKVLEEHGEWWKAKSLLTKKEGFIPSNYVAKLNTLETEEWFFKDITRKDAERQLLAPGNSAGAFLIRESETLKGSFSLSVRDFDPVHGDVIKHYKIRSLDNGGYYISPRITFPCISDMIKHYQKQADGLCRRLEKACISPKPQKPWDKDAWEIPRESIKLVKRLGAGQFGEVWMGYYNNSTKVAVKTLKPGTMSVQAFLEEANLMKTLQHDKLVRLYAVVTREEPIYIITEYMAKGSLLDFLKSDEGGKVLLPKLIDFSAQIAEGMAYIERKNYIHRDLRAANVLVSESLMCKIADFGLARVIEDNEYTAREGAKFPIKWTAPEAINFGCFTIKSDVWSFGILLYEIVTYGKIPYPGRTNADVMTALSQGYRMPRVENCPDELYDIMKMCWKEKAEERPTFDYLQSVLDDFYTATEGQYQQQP
Active and inactive are the calls of the source.
Thanks in advance; please answer with one of these: t (active), f (inactive)

Reference set, count: 4
| compound | label_value |
| --- | --- |
| O=C(O)[C@]1(Cc2cccc(Nc3nccs3)n2)CC[C@@H](Oc2cccc(Cl)c2F)CC1 [MK-5108] | f |
| N[C@@H]1CCCN(c2c(/C=C3\SC(=O)NC3=O)cccc2-c2ccccc2)C1 | f |
| CNC(=O)c1cc(Oc2ccc(NC(=O)Nc3ccc(Cl)c(C(F)(F)F)c3)c(F)c2)ccn1 [REGORAFENIB] | f |
| COc1ccc(-c2ccc3c(N4CCOC[C@@H]4C)nc(N4CCOC[C@@H]4C)nc3n2)cc1CO [AZD-8055] | f |

Task: Per the records of this test, what outcome belongs to COc1cc(OC)c(/C=C/S(=O)(=O)Cc2ccc(OC)c(NCC(=O)O)c2)c(OC)c1 [RIGOSERTIB] ?
Result: f

Task: What do you have for O=C(c1ccc(F)c(F)c1Nc1ccc(I)cc1F)N1CC(O)([C@@H]2CCCCN2)C1 [COBIMETINIB] ?
Result: f

Task: What do you have for CC[C@@H]1C(=O)N(C)c2cnc(Nc3ccc(C(=O)N[C@H]4CC[C@H](N5CCN(CC6CC6)CC5)CC4)cc3OC)nc2N1C(C)C [VOLASERTIB] ?
Result: f

Task: What do you have for CN1N=C(N)c2cn([C@@H]3O[C@H](COP(=O)(O)O)[C@@H](O)[C@H]3O)c3ncnc1c23 [TRICIRIBINE PHOSPHATE] ?
Result: f

Task: What do you have for CC(=O)Nc1cccc(-n2c(=O)n(C3CC3)c(=O)c3c(Nc4ccc(I)cc4F)n(C)c(=O)c(C)c32)c1 [TRAMETINIB] ?
Result: f

Task: What do you have for C=CC(=O)N1CCC(Oc2cc3c(Nc4ccc(Cl)c(Cl)c4F)ncnc3cc2OC)CC1 [POZIOTINIB] ?
Result: f

Task: What do you have for CNC(=O)CN1CCC(Oc2cc3c(Nc4cccc(Cl)c4F)ncnc3cc2OC)CC1 [SAPITINIB] ?
Result: t

Task: What do you have for C[C@@H](Nc1cc(F)cc(F)c1)c1cc(C(=O)N(C)C)cc2c(=O)cc(N3CCOCC3)oc12 [AZD-8186] ?
Result: f

Task: What do you have for CCc1cnn2c(NCc3ccc[n+]([O-])c3)cc(N3CCCC[C@H]3CCO)nc12 [DINACICLIB] ?
Result: f

Task: What do you have for Cn1cc(-c2ccc(F)c(C(F)(F)F)c2)nc1C1CCN(c2ncnc3[nH]ncc23)CC1 [LY-2584702] ?
Result: f

Task: What do you have for Cn1ncc(Cl)c1-c1cc(C(=O)N[C@H](CN)Cc2cccc(F)c2)sc1Cl [AFURESERTIB] ?
Result: f

Task: What do you have for CCn1c(=O)c(-c2cc[nH]n2)cc2c(C)nc(N)nc21 [VOXTALISIB] ?
Result: f

====

system_under_test: cAMP-dependent protein kinase catalytic subunit alpha (Homo sapiens, UniProt P17612); further: in the data inactive means no Kd found up to 30 µM
Activity calls are given as the source filed them.
Thanks in advance; please answer with one of these: Yes for active, No for inactive

| compound | label_value |
| --- | --- |
| O=c1sn(-c2cccc3ccccc23)c(=O)n1Cc1ccccc1 | No |
| Cc1ccc(S(=O)(=O)Nc2nc3ccccc3nc2Nc2ccc3nsnc3c2)cc1 | No |
| CO[C@H]1C[C@@H]2CC[C@@H](C)[C@@](O)(O2)C(=O)C(=O)N2CCCC[C@H]2C(=O)O[C@H]([C@H](C)C[C@@H]2CC[C@@H](OCCO)[C@H](OC)C2)CC(=O)[C@H](C)/C=C(\C)[C@@H](O)[C@@H](OC)C(=O)[C@H](C)C[C@H](C)/C=C/C=C/C=C/1C | No |
| C=CC(=O)N1CCC(Oc2cc3c(Nc4ccc(Cl)c(Cl)c4F)ncnc3cc2OC)CC1 | No |
| N[C@@H]1CCCN(c2c(/C=C3\SC(=O)NC3=O)cccc2-c2ccccc2)C1 | No |
| CN1CCC(COc2cnc(-c3cccc(Cn4nc(-c5cccc(C#N)c5)ccc4=O)c3)nc2)CC1 | No |
| CCN1CCN(Cc2ccc(-c3cc4c(N[C@H](C)c5ccccc5)ncnc4[nH]3)cc2)CC1 | No |
| COc1cc2nccc(Oc3ccc(NC(=O)Nc4cc(C)on4)c(Cl)c3)c2cc1OC | No |
| Cn1cc(-c2ccc(F)c(C(F)(F)F)c2)nc1C1CCN(c2ncnc3[nH]ncc23)CC1 | No |
| COc1cc(OC)c(/C=C/S(=O)(=O)Cc2ccc(OC)c(NCC(=O)O)c2)c(OC)c1 | No |

Task: Per the records of this test, what outcome belongs to Cc1c(F)cc(C(=O)NC2CC2)cc1-c1ccc(C(=O)NCC(C)(C)C)cn1 ?
Result: No

Task: What do you have for C[C@@H](Nc1cc(F)cc(F)c1)c1cc(C(=O)N(C)C)cc2c(=O)cc(N3CCOCC3)oc12 ?
Result: No

Task: What do you have for CC(=O)Nc1cccc(-n2c(=O)n(C3CC3)c(=O)c3c(Nc4ccc(I)cc4F)n(C)c(=O)c(C)c32)c1 ?
Result: No

Task: What do you have for CN1N=C(N)c2cn([C@@H]3O[C@H](COP(=O)(O)O)[C@@H](O)[C@H]3O)c3ncnc1c23 [TRICIRIBINE PHOSPHATE] ?
Result: No

====

system_under_test: UniProt:Q6ZSR9
Sequence (Q6ZSR9 whole entry): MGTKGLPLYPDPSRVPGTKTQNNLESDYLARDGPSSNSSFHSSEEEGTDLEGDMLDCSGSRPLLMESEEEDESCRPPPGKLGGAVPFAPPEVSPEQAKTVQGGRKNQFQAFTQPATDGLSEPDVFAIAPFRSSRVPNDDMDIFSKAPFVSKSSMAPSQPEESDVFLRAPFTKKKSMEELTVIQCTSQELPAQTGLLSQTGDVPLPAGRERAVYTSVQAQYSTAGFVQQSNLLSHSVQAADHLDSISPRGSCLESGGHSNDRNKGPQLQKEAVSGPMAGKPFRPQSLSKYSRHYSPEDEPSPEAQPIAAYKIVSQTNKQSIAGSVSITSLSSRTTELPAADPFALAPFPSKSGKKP
experimental_setup: read-out: Kd apparent; k-562, colo 205, sk-n-be(2) and mv-4-11; further: in the data inactive means no Kd found up to 30 µM
Activity calls are given as the source filed them.
Thanks in advance; please answer with one of these: active, inactive

| molecule | label_value |
| --- | --- |
| Cc1cc([C@@H](C)Nc2ccccc2C(=O)O)c2nc(N3CCOCC3)cc(=O)n2c1 [AZD-6482] | inactive |
| CN1CCC(CNc2ccc3ncc(-c4cccc(OC(F)(F)F)c4)n3n2)CC1 [SGI-1776] | inactive |
| Cn1cc(-c2ccc3nnc(C(F)(F)c4ccc5ncccc5c4)n3n2)cn1 [JNJ-38877605] | inactive |

Task: Per the records of this test, what outcome belongs to Cc1nc(N)sc1-c1ccnc(Nc2ccc(N3CCOCC3)cc2)n1 [CYC-116] ?
Result: active

Task: What do you have for CNC(=O)c1ccc(-c2cnc3ncc(Cc4ccc5ncccc5c4)n3n2)cc1F [CAPMATINIB] ?
Result: inactive
